Consider the following sequences and their measured protein stability index readings.
experiment: protein stability index of a GFP-peptide fusion (GPS, HEK-293T) (PSI 1-6); higher = more stable; conditions: treatment: MLN4924 1 uM, 8 h; c terminus: a fixed tail appended;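 note: 24-mer peptide tiles fused after GFP, lentivirally expressed, FACS-sorted into six equal bins by GFP/DsRed ratio, decoded by Illumina sequencing, PSI is the read-weighted mean bin number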
Observed Property: protein stability index

[[record]]
sequence_text = "DGSKSLGEENFEVVKQFVTGIIDS [MATN2]"
observed_property = "protein stability index"
reported_result = 4.33

[[record]]
sequence_text = "PDDLLTTLDDTCDLFAPLVQETNK [ATF4]"
observed_property = "protein stability index"
reported_result = 5.14

[[record]]
sequence_text = "MTRNDVLTGLQLKLGPALKIYEYH [SAMD13]"
observed_property = "protein stability index"
reported_result = 2.22

[[record]]
sequence_text = "LIGDLIGHSSSVEMFLYFEDHGLV [WDR41]"
observed_property = "protein stability index"
reported_result = 2.83

[[record]]
sequence_text = "YHINSISVNSDCETYMSADDLRIN [PPP2R2C]"
observed_property = "protein stability index"
reported_result = 3.2

[[record]]
sequence_text = "GEEQAQLLHVSSPNLASDSDLSRR [KCNA1]"
observed_property = "protein stability index"
reported_result = 5.33

[[record]]
sequence_text = "IRKKLKDSGDVSNVIEKVKCILKT [RHOBTB3]"
observed_property = "protein stability index"
reported_result = 2.72


====

assay: protein stability index of a GFP-peptide fusion (GPS, HEK-293T) (PSI 1-6); higher = more stable; conditions: treatment: DMSO; c terminus: a fixed tail appended
Observed Property: protein stability index

[[record]]
sequence_text = "VQYLQHLGTENLHLIFSYSVWVLR [VPS39]"
reported_result = 3.23

[[record]]
sequence_text = "PPRRSRSRSHDRLPYQRRYRERRD [CLK3]"
reported_result = 4.51

[[record]]
sequence_text = "EDYGHWLLCLRAVTHREGAPPLPG [PLEKHN1]"
reported_result = 2

[[record]]
sequence_text = "LLRSPPPPSARHRAHPPQRPASSG [KCNA3]"
reported_result = 4.42

[[record]]
sequence_text = "LIGDLIGHSSSVEMFLYFEDHGLV [WDR41]"
reported_result = 2.57

[[record]]
sequence_text = "LPDVSLGRYAYVRGGGDPWTNGSG [MCOLN1]"
reported_result = 2.51

[[record]]
sequence_text = "SQYFRSLFSSHPPLGGGVGGQDGL [KLHL14]"
reported_result = 2.72


====

assay: protein stability index of a GFP-peptide fusion (GPS, HEK-293T) (PSI 1-6); higher = more stable; details: treatment: DMSO; c terminus: a fixed tail appended
// not met strictly below 4 in protein stability index; met otherwise

[[record]]
sequence_text = "ARKARKYEIPHFRLKKVENIKIWL [PHTF1]"
class = "not met"

[[record]]
sequence_text = "WWNHMHFQHHAKPNCFRKDPDINM [FADS1]"
class = "not met"

[[record]]
sequence_text = "ESKKHQVETAFERLQQELEQQRCL [TRIM15]"
class = "met"

[[record]]
sequence_text = "RISSPQVEEGDSRFLANEVLQENY [WEE1]"
class = "met"

[[record]]
sequence_text = "KTQEHTPTPDDHVFRWLAYSYAST [CPXM2]"
class = "not met"

[[record]]
sequence_text = "VAITVEVKQEEDIKPPPPLVLNSQ [RAD54B]"
class = "not met"

[[record]]
sequence_text = "RKAAKSLIKLGLERFHGVGILGFN [ACSBG2]"
class = "not met"

[[record]]
sequence_text = "GSKEGNHHSTQPKRNKRNPIFQDS [FAM104B]"
class = "met"

[[record]]
sequence_text = "SDGFRDCKKGDPKHGKRKRGRPRK [ELF3]"
class = "met"

[[record]]
sequence_text = "PSNARGPILSRSTSTGSAASSGSN [SPRY1]"
class = "met"

[[record]]
sequence_text = "RETASLKLLPHQPRIVEMKKGSNG [PDZK1]"
class = "not met"

